The reported numbers originate from patent US11304897B2.

- method.description: Solubility in different cosolvents
- Format: physicochemical
- condition.description: 20% sulfobutylether β-cyclodextrin in purified water, aqueous with cosolvent or surfactant or cyclodextrin
Item-by-item account of solubility
assay.readout: solubility

> print(dat)
                              smiles.record      result
1  OCc1cc([C@@H](O)CNCCCCCCOCCOCc2c(Cl)cccc2Cl)ccc1O  1400 µg/mL
2  OC(c1ccccc1)(c1ccccc1)C12CC[N+](CCOCc3ccccc3)(CC1)CC2.[Br-]  3450 µg/mL

* * *

- method.description: Solubility in different cosolvents
- Type: physicochemical
- condition.description: purified water, water
assay.readout: solubility (µg/mL)

> print(dat)
                              smiles.record  assay.readout  numeric.value
1  OC(c1ccccc1)(c1ccccc1)C12CC[N+](CCOCc3ccccc3)(CC1)CC2.[Br-]     solubility            618
2  OCc1cc([C@@H](O)CNCCCCCCOCCOCc2c(Cl)cccc2Cl)ccc1O     solubility           53.7

* * *

This listing pairs compounds with measured solubility.
- method.description: Solubility in different cosolvents
- Assay type: physicochemical
- condition.description: 0.2 mg/ml tween-80, aqueous with cosolvent or surfactant or cyclodextrin
assay.readout: solubility (µg/mL)

> print(dat)
                              smiles.record  numeric.value
1  OC(c1ccccc1)(c1ccccc1)C12CC[N+](CCOCc3ccccc3)(CC1)CC2.[Br-]            582
2  OCc1cc([C@@H](O)CNCCCCCCOCCOCc2c(Cl)cccc2Cl)ccc1O           62.6
